growth for assorted compounds
Test system: A498 renal
METHOD: NCI-60 one-dose screen, 48 h (100 = growth as untreated, 0 = no growth, -100 = all killed)
CONDITION_NOTES: 10 µM unless noted
The panel holds about 83,000 compounds, 20% with a hit somewhere; the sample as a whole holds those more often.
OBSERVABLE: growth (%)

COMPOUND: O=C(/C=C/Nc1ccc2oc(=O)ccc2c1)c1cc2cc(Br)ccc2oc1=O
RESULT_UNITS: %
MEASURED_RESULT: 144
--
COMPOUND: CC(=O)Nc1ccc(-c2cn(-c3cccc(C(=O)Nc4ccc(N5CCN(C)CC5)cc4)c3)nn2)cn1
RESULT_UNITS: %
MEASURED_RESULT: 160
--
COMPOUND: O=C(NN1C(=O)/C(=C/C=C/c2ccc([N+](=O)[O-])o2)SC1=S)c1ccccc1O
RESULT_UNITS: %
MEASURED_RESULT: -61.2
--
COMPOUND: O=C(Cn1c(/C=C/c2cccc([N+](=O)[O-])c2)nc2ccccc2c1=O)Nc1ccccc1
RESULT_UNITS: %
MEASURED_RESULT: 94.7
--
COMPOUND: C=C1CC[C@@H]2[C@]3(C)COC(c4ccco4)O[C@@H]3CC[C@@]2(C)[C@@H]1C/C=C1/C(=O)OCC1OC(C)=O (stereo partly drawn)
RESULT_UNITS: %
MEASURED_RESULT: 129
--
COMPOUND: NS(=O)(=O)c1ccc(-n2cc(-c3cccc(NC(=O)c4cc(Cl)cc(Cl)c4)c3)nn2)cc1
RESULT_UNITS: %
MEASURED_RESULT: 135
--
COMPOUND: O=c1[nH]c2ccc(Cl)cc2cc1CSc1nccc(-c2ccc(Cl)cc2)n1
RESULT_UNITS: %
MEASURED_RESULT: 98.4
--
COMPOUND: COc1c(F)ccc(C(=O)Nc2ccc3nc(NC(=O)C4CCCN(S(=O)(=O)c5ccc(Cl)cc5)C4)sc3c2)c1F (stereo not drawn)
RESULT_UNITS: %
MEASURED_RESULT: 96.4

---

Test system: PC-3 prostate
METHOD: NCI-60 one-dose screen, 48 h (100 = growth as untreated, 0 = no growth, -100 = all killed)
CONDITION_NOTES: 10 µM unless noted
Compounds without any hit were thinned out: in the full panel of roughly 83,000, 20% have a hit.
T if growth is below 70%. F if not; exact matches included in F.

MOLECULE: CN(C)CCCNC(=O)c1cc(NC(=O)c2cc(NC(=O)c3ccc(/C=C/c4ccccc4)cc3)cn2C)cn1C
ANSWER_LABEL: T
//
MOLECULE: Cc1cnc(C(=O)NNc2nc3cc(F)ccc3n3c(C(=O)N4CC5CC(C4)N5)ccc23)cn1
ANSWER_LABEL: T
//
MOLECULE: COc1cccc(-c2c(C#N)c(-c3ccc(Cl)cc3)nc3n[nH]c(-c4ccc(Cl)cc4)c23)c1
ANSWER_LABEL: T
//
MOLECULE: COc1ccc(C(=O)/C=C/c2ccc(OCc3ccc(F)cc3)c(OC)c2)cc1OC
ANSWER_LABEL: T
//
MOLECULE: Cc1occc1C(=O)NN1C(=O)/C(=C/C=C/c2ccc([N+](=O)[O-])o2)SC1=S
ANSWER_LABEL: T
//
MOLECULE: COc1ccc2c(c1)c(-c1cc(N)n3nc(-c4cn(C)c5ccccc45)cc3n1)cn2C
ANSWER_LABEL: T
//
MOLECULE: O=C(Cn1nc(-c2ccccc2)ccc1=O)N/N=C/c1ccc(N2CCOCC2)cc1
ANSWER_LABEL: F
//
MOLECULE: S=C(NCCc1ccccc1)Nc1ccc(OCc2nc3ccccc3[nH]2)cc1
ANSWER_LABEL: F
//
MOLECULE: C=C1CC[C@@H]2[C@]3(C)COC(c4cn[nH]c4-c4ccc(F)cc4)O[C@@H]3CC[C@@]2(C)[C@@H]1C/C=C1/C(=O)OCC1O (some centres not stated)
ANSWER_LABEL: T
//
MOLECULE: CCCCn1c(O)c(N=Nc2nc(-c3cc4ccccc4oc3=O)cs2)c2cc(Br)ccc21
ANSWER_LABEL: F
//
MOLECULE: COc1ccc(-c2nnc3ccc(N/N=C/c4ccc(C)cc4)nn23)cc1
ANSWER_LABEL: F
//
MOLECULE: Cc1ccc(NC(=O)CN2CCN(c3ncnc4c3cnn4-c3ccccc3)CC2)cc1
ANSWER_LABEL: T
//
MOLECULE: COc1ccc(C(=O)/C=C/c2ccc3ccccc3c2)cc1S(N)(=O)=O
ANSWER_LABEL: T
//
MOLECULE: CC(=O)c1cccc(NC(=O)CCC(=O)NS(=O)(=O)c2ccc(C)cc2)c1
ANSWER_LABEL: F
//
MOLECULE: O=c1c2ccccc2nc(-c2ccccc2)n1/N=C/c1ccc2ccccc2c1
ANSWER_LABEL: T

---

Test system: T-47D breast
METHOD: NCI-60 one-dose screen, 48 h
CONDITION_NOTES: 10 µM unless noted
About 83,000 compounds went through this panel and 20% of them were active in at least one assay; those are over-represented in the sample as a whole. Activity calls are given as the source filed them. Rule for the calls: active = growth percent below 10; inactive = the rest.
Outcome codes: YES = active, NO = inactive

MOLECULE: CC1(C)CC[C@]2(C(=O)O)CC[C@]3(C)C(=CCC4[C@@]5(C)C[C@@H](O)[C@@H]6OC(c7ccccc7F)OC[C@@]6(C)C5CC[C@]43C)C2C1 (some centres not stated)
EXPERIMENTAL_TARGET: T-47D breast
ANSWER_LABEL: NO
--
MOLECULE: O=C1CC(Sc2n[nH]c(-c3ccncc3)n2)C(=O)N1c1ccc(Br)cc1 (configuration not stated)
EXPERIMENTAL_TARGET: T-47D breast
ANSWER_LABEL: NO
--
MOLECULE: N#Cc1c(-c2ccc(Br)cc2)nc2n[nH]c(-c3ccc(Br)cc3)c2c1-c1ccc(F)cc1
EXPERIMENTAL_TARGET: T-47D breast
ANSWER_LABEL: NO
--
MOLECULE: C#C[C@]1(O)CC[C@H]2[C@@H]3CC=C4c5sc(-c6ccc(O)c(O)c6)nc5CC[C@]4(C)[C@H]3CC[C@@]21C
EXPERIMENTAL_TARGET: T-47D breast
ANSWER_LABEL: YES
--
MOLECULE: N/C(=N\c1nc2ccccc2s1)NC(=O)Nc1c(Cl)cccc1Cl
EXPERIMENTAL_TARGET: T-47D breast
ANSWER_LABEL: NO
--
MOLECULE: COc1c(F)ccc(C(=O)Nc2ccc3nc(NC(=O)C4CCCN(S(=O)(=O)c5ccc(C#N)cc5)C4)sc3c2)c1F (configuration not stated)
EXPERIMENTAL_TARGET: T-47D breast
ANSWER_LABEL: NO
--
MOLECULE: CN1CCN(c2ccc3c(c2)nc(NNC(=O)c2ncccn2)c2cccn23)CC1
EXPERIMENTAL_TARGET: T-47D breast
ANSWER_LABEL: YES
--
MOLECULE: CSc1ccc(C(=O)Nc2ccc3nnn(/C(C#N)=C/c4ccccn4)c3c2)cc1
EXPERIMENTAL_TARGET: T-47D breast
ANSWER_LABEL: YES
--
MOLECULE: COc1ccc(/C=N/NC(=O)Cn2nc(Cc3ccc(OC)cc3)c3onc(C)c3c2=O)cc1
EXPERIMENTAL_TARGET: T-47D breast
ANSWER_LABEL: NO
--
MOLECULE: CC1(C)CC[C@]2(C(=O)O)CC[C@]3(C)C(=CCC4[C@@]5(C)C[C@@H](O)[C@@H]6OC(c7cccc(Br)c7)OC[C@@]6(C)C5CC[C@]43C)C2C1 (some centres not stated)
EXPERIMENTAL_TARGET: T-47D breast
ANSWER_LABEL: NO
--
MOLECULE: COc1ccc(C2=NN(c3ccccc3)C(c3ccc(OCc4ccccc4)c(OC)c3)C2)cc1OC (configuration not stated)
EXPERIMENTAL_TARGET: T-47D breast
ANSWER_LABEL: NO
--
MOLECULE: CN(C)c1nc(NCCNS(=O)(=O)c2ccc(C3=Nc4c(N)nc(N)nc4NC(c4ccccc4)C3)cc2)nc(Nc2ccc(F)cc2)n1 (configuration not stated)
EXPERIMENTAL_TARGET: T-47D breast
ANSWER_LABEL: NO
--
MOLECULE: CC1CN(c2oc(-c3ccc([N+](=O)[O-])cc3)nc2C#N)CC(C)O1 (configuration not stated)
EXPERIMENTAL_TARGET: T-47D breast
ANSWER_LABEL: NO
--
MOLECULE: COc1ccc(-c2ccc(SCC(=O)NCCc3ccc(S(N)(=O)=O)cc3)nn2)cc1
EXPERIMENTAL_TARGET: T-47D breast
ANSWER_LABEL: NO
--
MOLECULE: Cc1ccc(C(=O)NN2C(=O)/C(=C/C=C/c3ccc([N+](=O)[O-])o3)SC2=S)cc1
EXPERIMENTAL_TARGET: T-47D breast
ANSWER_LABEL: YES
--
MOLECULE: COc1cccc(/C=C/C(=O)c2ccc(OC)c(S(N)(=O)=O)c2)c1
EXPERIMENTAL_TARGET: T-47D breast
ANSWER_LABEL: NO
--
MOLECULE: CC(C)Sc1nc(NCCc2c[nH]c3ccccc23)c(C#N)c(-c2ccccc2)n1
EXPERIMENTAL_TARGET: T-47D breast
ANSWER_LABEL: YES
